The values you see were collected from ChEMBL document CHEMBL1201862.

Test system: SK-OV-3
Assay: NCI tumour cell line growth inhibition, 48 h
Activity calls are given as the source filed them. Cut-off read from the data, not from the text of the source: active = GI50 up to about 1.1 µM and inactive = higher.
Your reply should match one of these outcome classes. YES = active, NO = inactive

Name the outcome recorded for Cc1ccc(C(=O)/C=C2\Nc3ccccc3N=C2NC23CC4CC(CC(C4)C2)C3)cc1 in the assay.
NO

Outcome? Cn1c(=O)c2nc(COCc3nc4c(=O)n(C)c(=O)n(C)c4[nH]3)[nH]c2n(C)c1=O
NO

What call does the record list for C/C1=C\CC/C(C)=C/C=C(/C(C)C)CC/C(C(=O)O)=C/CC1 [CROTOCEMBRANEIC ACID] ?
NO

What was the test verdict on O=C1CC(c2ccc(Cl)cc2)Oc2ccccc21 (stereo not given) ?
NO

Call for entry CCCC[C@@H](C)/C=C1\CN2CCC[C@H]2[C@@](C)(OCc2ccccc2)[C@@H]1O :
NO

Please indicate how the test categorized CC1=CC[C@@]2(C)[C@@H]([C@@H]1C)[C@H]1CC[C@@H]3[C@@]4(C)CC[C@H](O)C(C)(C)[C@@H]4CC[C@@]3(C)[C@]1(C)C[C@@H]2O .
NO

What outcome does the record of this test show for CCCOCN1COCN/C1=N\C#N ?
NO

For COc1ccc(C2CC3(c4ccccc4)ON=C(c4ccccc4)N3c3ccccc3S2)cc1 (stereo not given) , what call appears in the results of this test?
NO

Please indicate how the test categorized CC(=O)OCC1OC(N2C(=O)NC(=O)C3C=C4CCCCC4=CC32)CC1OC(C)=O (stereo not given) .
NO

Outcome? Cn1c(=O)oc2cc(C(=O)CN3CCN(Cc4ccc5c(c4)OCO5)CC3)c(Cl)cc21
NO

Assay result, entry O=c1[nH]c(=O)n([C@@H]2C[C@H](CO)[C@H](O)C2)cc1/C=C/Br — outcome?
NO

Recorded call for CCn1c(=O)c2nc(SC)sc2n(-c2ccccc2)c1=O ?
NO

What did the test return for CC(=O)Nc1c(Nc2ccccc2)[nH]c(C)nc1=S ?
NO

Per the assay record, what outcome was assigned to CC(C)(C)OC(=O)N1CCCC1=O ?
NO

Outcome logged for Cc1ccccc1NC(=O)C(=O)CC(=O)c1ccc([N+](=O)[O-])cc1 in this assay:
NO

What call does the record list for CCn1c(=O)c2c3ccc(O)cc3[nH]c2c2ccc(O)cc21 ?
NO

Record lookup: outcome of this test for O=C(COc1ccc(Cl)cc1)N1CCN(C(=O)COc2ccc(Cl)cc2)c2ccccc21 ?
NO

I'd appreciate the recorded outcome for CN(C)CCCCCNc1c2ccccc2nc2cccc([N+](=O)[O-])c12 from this test.
YES

Dear all, I need the recorded test outcome for Cc1cc(NS(=O)(=O)c2ccc(NC(=O)COC(=O)c3cccc4c(=O)c5ccccc5[nH]c34)cc2)no1 , thank you.
NO

Assay outcome for O=C(O)CSc1ccc([N+](=O)[O-])cc1[N+](=O)[O-] : what was it?
NO

---

Tested on: SK-MEL-2
Assay: NCI tumour cell line growth inhibition, 48 h
Activity calls are given as the source filed them. Rule as the data show it: active = GI50 up to about 1.1 µM and inactive = higher.
Field 'call' accepts 1.0 (active), 0.0 (inactive)

Called result for O=C(O)/C(O)=C\C(=O)c1ccc(Br)cc1
0.0

Identify the outcome logged in this assay for the compound shown: CC(C)(C)C(=O)/C=C(\OB(F)F)C(C)(C)C
0.0

Call for entry Cc1ccc(C2SCc3nc4ccccc4n32)cc1 (stereo not given) :
1.0

What call does the record list for CC(=O)OCC1OC(N2C(=O)C(=O)c3ccccc32)C(OC(C)=O)C(OC(C)=O)C1OC(C)=O (stereo not given) ?
0.0

What did the test return for Cc1ccc(NC(=O)NC23CC4CC(CC(F)(C4)C2)C3)cc1 ?
0.0

Dear all, I need the recorded test outcome for N#CC(c1ccc(Cl)cc1)c1cccc(Cl)n1 (stereo not given) , thank you.
0.0

# outcome recorded in this test, key = COC(=O)[C@@H]1C[C@@H](O)CN1C(=O)c1ccc([N+](=O)[O-])cc1[N+](=O)[O-]
0.0

Answer briefly: the call reported for CCN(CC)CC/N=C\c1c(O)c(O)c(C(C)C)c2cc(C)c(-c3c(C)cc4c(C(C)C)c(O)c(O)c(/C=N/CCN(CC)CC)c4c3O)c(O)c12 in this assay.
0.0

Please indicate how the test categorized N#CC1(C=O)c2ccccc2C=CN1C(=O)c1ccccc1 (stereo not given) .
0.0

# outcome recorded in this test, key = C=C1C(=O)O[C@H]2[C@H]3O[C@@H](C[C@@H]12)[C@@]1(C)CC[C@H](O1)[C@H](C)CCC[C@H]3C
0.0

For Cc1ccc(/C=C2\CNC/C(=C\c3ccc(C)cc3)C2=O)cc1 , what call appears in the results of this test?
0.0

Lab log entry: CN(C)CCCCCNc1c2ccccc2nc2cccc([N+](=O)[O-])c12 — outcome as called in the assay?
1.0

Look up the recorded call for COc1cc(/C=N/NC(=O)c2c(Cl)c(Cl)c(Cl)c(Cl)c2-c2nc3cc(C(=O)c4ccccc4)ccc3[nH]2)ccc1O in this test.
0.0

How was COC(=O)C(CC(C)C)NC(=O)NC12CC3CC(CC(F)(C3)C1)C2 (stereo not given) classified in this test?
0.0

Any idea what this test logged for C[N+]12CCCCC1C(COc1cccc3cccnc13)CCC2 (stereo not given) ?
0.0

Kindly provide the recorded test outcome for the following compound: CC(=O)OCC1OC(N2C(=O)NC(=O)C3C=C4CCCCC4=CC32)CC1OC(C)=O (stereo not given)
0.0

// return assay outcome for O=C(N/N=C/c1ccc([N+](=O)[O-])cc1)Nc1ccc(C(=O)O)cc1
0.0

Short answer needed: outcome of this test for COc1ccc(/C(Cl)=C(\C=O)c2ccc(OC)c(OC)c2)cc1OC ?
0.0

How did this test come out for CCOC(=O)C1(C#N)C(c2ccccc2)CC(O)(c2ccc([N+](=O)[O-])cc2)C(C(=O)c2ccc([N+](=O)[O-])cc2)C1c1ccccc1 (stereo not given) ?
0.0

How was CCCCC/C(=N\c1[nH]nnc1C(N)=O)OCC classified in this test?
0.0
